assay: Acute oral toxicity; design: species or system adult albino male mice (Charles River strain); conditions: mouse, in vivo; route not stated with the value (oral unless otherwise indicated); read-out: LD50
Metric Name: LD50

Q: Look up LD50 of COCN1C(=O)NC(c2ccccc2)(c2ccccc2)C1=O and report it.
Ans: ~500 mg/kg

----------
Experiment: Neurological deficit (Swinyard et al. plus rotorod)
Parameters: species or system adult albino male mice (Charles River strain)
Settings: mouse, in vivo; oral, mice; 95% limits in parentheses
Description: All tests, with the exceptions noted, were conducted on adult albino male mice (Charles River strain); the dosage consisted of the active agent suspended in 10% aqueous acacia and was administered orally unless otherwise indicated. The dosage required to produce a neurological deficit was determined by the method of Swinyard et al., J. Pharmacol. Exptl. Therap. […]
Metric Name: TD50
Include the unit after the number when you answer.

Q: Look up TD50 of CCC1(c2ccccc2)C(=O)N(COC)C(=O)N(COC)C1=O and report it.
Ans: 47 mg/kg

----------
Consider the following compounds; for each one, report its LD50.
assay: Acute oral toxicity; parameters: species or system adult albino male mice (Charles River strain); conditions: mouse, in vivo; oral, mice; 95% limits in parentheses; read-out: LD50 (oral)

Example entries and their recorded answers appear below.
Compound: CCCCOCN1C(=O)N(COCCCC)C(=O)C(CC)(c2ccccc2)C1=O
LD50: > 500 mg/kg

Compound: C=CCC1(C(C)CCC)C(=O)N(COC)C(=O)N(COC)C1=O (centres unmarked)
LD50: > 500 mg/kg

Compound: CCC1(c2ccccc2)C(=O)N(COC)C(=O)N(COC)C1=O
LD50: 470 mg/kg

# batch: return LD50 for each of the 2 compounds below
1. CCCCCCCCCCCCOCN1C(=O)N(COCCCCCCCCCCCC)C(=O)C(CC)(CC)C1=O
2. C=CCC1(C(C)CCC)C(=O)N(COCc2ccccc2)C(=O)N(COCc2ccccc2)C1=O (centres unmarked)

Ans:
["> 1000 mg/kg", "> 1000 mg/kg"]

----------
assay: Acute oral toxicity; parameters: species or system adult albino male mice (Charles River strain); settings: mouse, in vivo; oral, mice; 95% limits in parentheses; read-out: LD50 (oral)
Metric Name: LD50

Molecule: CCCCOCN1C(=O)NC(c2ccccc2)(c2ccccc2)C1=O [Example 6, 3-(n)-butoxymethyl-5,5-diphenylhydantoin]
Value: > 500 mg/kg
--
Molecule: CCCCCCCCCCCCOCN1C(=O)N(COCCCCCCCCCCCC)C(=O)C(CC)(c2ccccc2)C1=O [Example 8]
Value: > 500 mg/kg

Q: Look up LD50 of CCC1(CC)C(=O)N(COC)C(=O)N(COC)C1=O [Example 9] and report it.
Ans: > 1000 mg/kg
